Just for reference, patent US12509460B2 is where these values come from.

Tested on: MDR1-MDCK cell monolayers
Assay summary: Blood-brain-barrier (BBB) penetration potential via MDCK-MDR1 permeability assay
Assay context: A-B direction
Binarize MDCK-MDR1: % Recov A-B at 60%; below is Yes, at or above is No.

Molecule | Label class
CN(c1ccc(-c2ccc(-n3ccnn3)cc2O)nn1)[C@@H]1C[C@H]2CCC[C@H](N2)[C@@H]1F [Compound 62A] | No
CN(c1ccc(-c2ccc(C#N)cc2O)nn1)[C@@H]1C[C@H]2CCC[C@H](N2)[C@@H]1F [Compound 39A] | No
CN(c1ccc(-c2ccc(-c3cnccn3)cc2O)nn1)[C@@H]1C[C@H]2CCC[C@H](N2)[C@@H]1F [Compound 24A] | No
CN(c1ccc(-c2ccc(-c3cnc(C#N)cn3)cc2O)nn1)[C@@H]1C[C@H]2CCC[C@H](N2)[C@@H]1F [Compound 28A] | Yes
CN(c1ccc(-c2cc3occc(=O)c3cc2O)nn1)[C@@H]1C[C@H]2CC[C@H](N2)[C@@H]1F [Compound 43A] | No
CN(c1ccc(-c2ccc(-n3ccnc3)cc2O)nn1)[C@@H]1C[C@H]2CC[C@H](N2)[C@@H]1F | No
CN(C)C(=O)c1cc2cc(O)c(-c3ccc(N(C)[C@@H]4C[C@H]5CC[C@H](N5)[C@@H]4F)nn3)cc2o1 | No
Cc1cnc(-c2ccc(-c3ccc(N(C)[C@@H]4C[C@H]5CCC[C@H](N5)[C@@H]4F)nn3)c(O)c2)cn1 [Compound 26A] | No

Request: Does this molecule meet the criterion MDCK-MDR1: % Recov A-B < 60%? CN(c1ccc(-c2cc3ccn(C)c(=O)c3cc2O)nn1)[C@H]1C[C@@H]2CC[C@@H](N2)[C@H]1F [Compound 84B]
Result: No

Request: Does this molecule meet the criterion MDCK-MDR1: % Recov A-B < 60%? CN(c1ccc(-c2ccc(-c3cnn(C)c3)cc2O)nn1)[C@H]1C[C@@H]2CCC[C@@H](N2)[C@@H]1F [Compound 14B]
Result: Yes

Request: Does this molecule meet the criterion MDCK-MDR1: % Recov A-B < 60%? Cc1cnc(-c2ccc(-c3ccc(N(C)[C@@H]4C[C@H]5CCC[C@H](N5)[C@@H]4F)nn3)c(O)c2)o1 [Compound 16A]
Result: Yes

Request: Does this molecule meet the criterion MDCK-MDR1: % Recov A-B < 60%? CN(c1ccc(-c2cc3cccnc3cc2O)nn1)[C@@H]1C[C@H]2CCC[C@H](N2)[C@@H]1F [Compound 41A]
Result: No

Request: Does this molecule meet the criterion MDCK-MDR1: % Recov A-B < 60%? Cc1cnc(-c2ccc(-c3ccc(N(C)[C@H]4C[C@@H]5CCC[C@@H](N5)[C@H]4F)nn3)c(O)c2)o1 [Compound 16B]
Result: Yes

* * *

Reported Papp A→B at 120 min, 5 μM values for the following molecules.
Tested on: MDR1 (P-gp)
Assay summary: Blood-brain-barrier (BBB) penetration potential via MDCK-MDR1 permeability assay
Assay context: dog, MDCK-MDR1, pH 7.4, MDCK-MDR1: Papp A-B, A-B direction
# output: bare number, implied unit ×10⁻⁶ cm/s

Item CN(c1ccc(-c2ccc(-c3ccn(C)n3)cc2O)nn1)[C@@H]1C[C@H]2CC[C@H](N2)[C@@H]1F (single isomer, unassigned) [Compound 36A] ; assay system MDR1 (P-gp); Papp A→B at 120 min, 5 μM reported as 3.68

Item CN(c1ccc(-c2cc3ccncc3cc2O)nn1)[C@H]1C[C@@H]2CC[C@@H](N2)[C@H]1F (single isomer, unassigned) [Compound 87B] ; assay system MDR1 (P-gp); Papp A→B at 120 min, 5 μM reported as 3.3

Item CN(c1ccc(-c2ccc(-c3ccccn3)cc2O)nn1)[C@H]1C[C@@H]2CCC[C@@H](N2)[C@H]1F [Compound 23B] ; assay system MDR1 (P-gp); Papp A→B at 120 min, 5 μM reported as 3.17

Item CN(c1ccc(-c2ccc(-c3cnn(C(F)F)c3)cc2O)nn1)[C@@H]1C[C@H]2CCC[C@H](N2)[C@@H]1F [Compound 21A] ; assay system MDR1 (P-gp); Papp A→B at 120 min, 5 μM reported as 1.99

Item CN(c1ccc(-c2ccc(-n3cnc(C#N)c3)cc2O)nn1)[C@H]1C[C@@H]2CC[C@@H](N2)[C@H]1F [Compound 69B] ; assay system MDR1 (P-gp); Papp A→B at 120 min, 5 μM reported as 1.51
